Entry source: patent US20160052996A1

TARGET_ENTITY: BKV VP1 VLP (BK virus (BKV), AS strain) (UniProt P14996)
Sequence (P14996 whole entry): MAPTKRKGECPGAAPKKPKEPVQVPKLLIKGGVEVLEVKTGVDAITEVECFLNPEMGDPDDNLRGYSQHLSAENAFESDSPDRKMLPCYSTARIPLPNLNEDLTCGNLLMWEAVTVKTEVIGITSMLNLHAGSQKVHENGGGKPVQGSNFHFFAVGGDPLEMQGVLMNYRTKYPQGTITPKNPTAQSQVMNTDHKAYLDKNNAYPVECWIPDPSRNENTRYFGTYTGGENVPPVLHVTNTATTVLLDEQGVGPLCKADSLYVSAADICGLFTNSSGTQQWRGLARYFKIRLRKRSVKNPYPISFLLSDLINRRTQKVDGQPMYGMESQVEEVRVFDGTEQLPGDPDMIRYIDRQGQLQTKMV
EXPERIMENT_NOTES: direct ELISA
# pEC50 per record follows
# pEC50: negative log10 of molar concentration; output just the value

Below: 2 binders and their reported pEC50.
* NI-307.19F10 (antibody, V domains shown) VH: EVQLVESGGGLVQPGGSVSLSCAASGFTFPVYWMHWVRQAPEKGLMWVSRISPDGTIVDYAGSVKGRFTVSRDNAKNILYLQIQRLTAEDTAVYFCTKDFDVASGFWGQGTLVTVSS VL: QSALTQPPSASGSPGQSVTISCTGSKSDVGTCHFVSWYQQHPGKVPKLVIYEGNKRPSGVPDRFSASKSGNTASLTISGLQPGDEADYYCSTCAGPNNYVFGTGTKVTVL | 8.96
* NI-307.57D5 (antibody, V domains shown) VH: EVQLVESGGGLAQPGGSLRLSCAGSGFTLSDFAMSWVRRAPGKGLEWVSSLTPSGRNSFYSDSVKGRFTISRDNWKNTLYLEMNLLRPEDTAVYYCARPGAPKNSDSKYSYVRVDFQHWGQGTLVTVSS VL: NFMLTQPHSVSESPGRTVTISCTRSSGSIANNFVQWYQHRPGSAPTTLIYEDDQRPSGVPDRFSGSVDSFSNSASLTISGLKTEDEADYFCQSYDNHNWVFGGGTTLTVL | 6.98

Kindly review the next binder as well.
stdin: Endpoint output: pEC50 of NI-307.5H3 (antibody, V domains shown) VH: QVQLQESGPGLLKPLGTLSLICDVSGDSISSSNWWSWVRQSPRKGLEWIGEIYHSGRTNYNPSLTNRVTISVDKSKNQFSLNLNSVTAADTGVYYCARWDYYYNNDYYIRGFDIWGQGTMVTVSS VL: EIVLTQSPGILSLSPGERATLSCRASQSVDSNYLAWYQQKPGQAPRLLIYSTSTRAAGVPDRFSGSGSGTDFALTISGLEPEDFAVYYCQQWGGSPPITFGQGTRLEIK . Value?
stdout: 9.54
